Measured GI50, listed per entry.
tested on: HOP-62; test: NCI tumour cell line growth inhibition, 48 h
Active and inactive are the calls of the source. Rule as the data show it: active = GI50 up to about 1.1 µM and inactive = higher.

Worked examples follow.
CCCCCOC(=O)C(=O)Nc1[nH]nnc1C(N)=O
> 100 µM (inactive)
COc1c(C)c(C/C=C(\C)CC/C=C(\C)CC/C=C(\C)CCC=C(C)C)c(OC)c2ccccc12
> 100 µM (inactive)
COC(=O)C1(C(=O)OC)CC(=O)c2cc3c(cc2-c2c(cc(OC)c(OC)c2OC)C1)OCO3
> 211 µM (inactive)
CCCCN(CCCC)C(=O)C(=O)C(C(=O)C(=O)OC)c1nc2ccccc2o1 (centres undefined)
74.5 µM (inactive)
CSc1nc(NC2OC(CO)C(O)C(O)C2O)c(N)c(=O)n1C (centres undefined)
> 100 µM (inactive)

Input line: # input molecule: O=C1CSC(/C=C/c2ccccc2)N1c1ccc(-c2ccc(-n3c(-c4ccccc4)nc4ccccc4c3=O)cc2)cc1 (centres undefined) ; wanted: its GI50
Output line: 28.5 µM (inactive)

Input line: Let us now turn to CC1=CC(=O)CC(C)(C)C1/C=C/C(C)=C/C=C/C(C)=C/C=C/C=C(C)/C=C/C=C(C)/C=C/C1=C(C)CC(O)CC1(C)C (centres undefined)
Output line: 47 µM (inactive)

Input line: Can you check CC1=C[C@H](C[C@]2(C)c3c(c4c(C)cccc4oc3=O)O[C@@H]2C)OC1=O next?
Output line: > 100 µM (inactive)

Input line: Also COC1=CC(=O)C2C(C1=O)C(c1ccc(OC)c(OC)c1)[C@H]2C (some centres undefined) ?
Output line: > 100 µM (inactive)

====

system: SF-539; assay: NCI tumour cell line growth inhibition, 48 h
Calls of active or inactive are those of the source. Rule as the data show it: active = GI50 up to about 1.1 µM and inactive = higher.
measurement-label: GI50

Solved cases (3 shown):
N#Cc1cc(NC(=O)c2ccccc2)c(=O)n2c1[nH]c1ccccc12
21.5 µM (inactive)
O=C(/C=C/c1ccc(O)c(O)c1)NC(CO)C(=O)O (centres undefined)
> 100 µM (inactive)
O=C(/C=C/C=C/c1ccccc1)c1ccccc1
17.3 µM (inactive)

Field: next compound
Input line: Recorded GI50 for CC1C(OC2O[C@@H]3O[C@@]4(C)CC[C@H]5[C@H](C)CC[C@@H](C2C)[C@@]35O4)O[C@@H]2O[C@@]3(C)CC[C@H]4[C@H](C)CC[C@@H]1[C@@]24O3 (some centres undefined) , please?
Output line: > 50 µM (inactive)

====

tested on: COLO 205; test: NCI tumour cell line growth inhibition, 48 h
Active and inactive are the calls of the source. Cut-off read from the data, not from the text of the source: active = GI50 up to about 1.1 µM and inactive = higher.
measurement-label: GI50

These recorded examples may help you get a feel for the data.
OC1C#CCSCC#C/C=C\1 (stereo unspecified)
15.2 µM (inactive)
C=CCOC(=O)NC1C(OC(C)[C@@H](NC(=O)OCc2ccccc2)C(=O)OC(C)(C)C)OC(COC(C)=O)C(OC(C)=O)C1OC(C)=O (stereo partly specified)
> 100 µM (inactive)
N=c1oc2ccccc2cc1-c1nc2ccccc2[nH]1
51.2 µM (inactive)
COc1ccc(S(=O)(=O)N2C(=O)CCC2C(=O)NN)cc1 (stereo unspecified)
> 100 µM (inactive)
Nc1nc(O)c2[nH]nnc2n1 [8-AZAGUANINE]
13.3 µM (inactive)

Input line: Consider the molecule shown here: OCCOCn1cc(Cn2ncc3c(SCc4ccccc4)ncnc32)nn1 What is its recorded GI50?
Output line: 31.3 µM (inactive)
